test: Multiple dose PK, 0.3 micron capsules 600, 800, 1000 mg BID escalating, healthy volunteers; assay type: in vivo, human; details: human, plasma, oral; 600 to 1000 mg BID; read-out: Mean apparent total body CL at steady-state
PROPERTY_NAME: clearance

Field clearance (entry CC(=O)[C@H]1CC[C@H]2[C@@H]3CC[C@H]4C[C@](C)(O)CC[C@]4(C)[C@H]3CC[C@]12C [Ganaxolone, 3α-hydroxy-3β-methyl-5α-pregnan-20-one] ) reads 10200 to 12800 mL/min

* * *

experiment: Multiple dose PK, 0.3 micron capsules 600, 800, 1000 mg BID escalating, healthy volunteers; type: in vivo, human; settings: human, plasma, oral; 600 mg BID, 0.3 micron capsules, steady state
PROPERTY_NAME: Cmax (ng/mL)
The response must be a number in ng/mL with no trailing unit.

Entry under test: CC(=O)[C@H]1CC[C@H]2[C@@H]3CC[C@H]4C[C@](C)(O)CC[C@]4(C)[C@H]3CC[C@]12C [Ganaxolone, 3α-hydroxy-3β-methyl-5α-pregnan-20-one] . Its Cmax was 224

* * *

experiment: Plasma concentrations in paediatric patients after oral dosing; format: in vivo, human; conditions: human, plasma; oral, β-cyclodextrin formulation with food, 6 mg/kg BID to 12 mg/kg TID, 5-15 year old; read-out: Plasma concentrations at week 8
PROPERTY_NAME: concentration at 8 weeks

Measured concentration at 8 weeks, CC(=O)[C@H]1CC[C@H]2[C@@H]3CC[C@H]4C[C@](C)(O)CC[C@]4(C)[C@H]3CC[C@]12C [Ganaxolone, 3α-hydroxy-3β-methyl-5α-pregnan-20-one] : 5.7 to 43.7 ng/mL

* * *

assay: Mass balance, single PO dose of 300 mg 14C-GNX in healthy male volunteers; type: in vivo; details: human, plasma
PROPERTY_NAME: Half-life

Short answer for CC(=O)[C@H]1CC[C@H]2[C@@H]3CC[C@H]4C[C@](C)(O)CC[C@]4(C)[C@H]3CC[C@]12C [Ganaxolone, 3α-hydroxy-3β-methyl-5α-pregnan-20-one] : Half-life was ~25 h
